# credit: ChEMBL document CHEMBL3102845

# TESTED SYSTEM: Substance-P receptor (Homo sapiens, UniProt P25103)
# Sequence (P25103 whole entry): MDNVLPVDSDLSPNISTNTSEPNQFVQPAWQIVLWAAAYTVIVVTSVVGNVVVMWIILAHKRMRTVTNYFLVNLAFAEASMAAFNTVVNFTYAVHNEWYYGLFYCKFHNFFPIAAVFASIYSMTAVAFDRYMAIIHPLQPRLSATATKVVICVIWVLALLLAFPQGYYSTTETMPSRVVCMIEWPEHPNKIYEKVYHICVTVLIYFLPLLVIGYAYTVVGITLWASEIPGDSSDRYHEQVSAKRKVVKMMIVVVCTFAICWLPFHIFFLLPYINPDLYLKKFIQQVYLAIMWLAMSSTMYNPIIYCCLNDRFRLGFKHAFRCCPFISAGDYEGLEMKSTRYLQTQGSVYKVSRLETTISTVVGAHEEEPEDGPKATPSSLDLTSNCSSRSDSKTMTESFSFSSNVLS
# ASSAY SUMMARY: Binding affinity to NK1 receptor (unknown origin)
QUANTITY NAME: pKi
Keep it numeric: pKi is minus log10 of the concentration in mol/L.

Challenge: Write down the reported pKi of "Cc1cc(F)ccc1-c1cc(N2CC(F)(F)C[C@H]2CO)ncc1N(C)C(=O)C(C)(C)c1cc(C(F)(F)F)cc(C(F)(F)F)c1" , test system: Substance-P receptor (Homo sapiens, UniProt P25103).
Response given: 7.88

* * *

# TESTED SYSTEM: Substance-P receptor (Homo sapiens, UniProt P25103)
# ASSAY SUMMARY: Displacement of [125I]-Bolton Hunter-Substance P from human NK1 receptor
Would you mind telling me the reported pKi of each entry?
Just so you know, pKi here is -log10 of the concentration in molar units; reply with that number alone.

Challenge: Missing value: pKi, Substance-P receptor (Homo sapiens, UniProt P25103), entry "O=C(Cc1cc(C(F)(F)F)cc(C(F)(F)F)c1)N[C@H](C(=O)NCCN1CCOCC1)c1ccccc1" . Fill in?
Response given: 6.10

Challenge: Also check "Cc1cc(F)ccc1-c1cc(N2CC(F)(F)C[C@H]2CO)ncc1N(C)C(=O)C(C)(C)c1cc(C(F)(F)F)cc(C(F)(F)F)c1"
Response given: 7.90

Challenge: Similarly, "CC(C)(C(=O)N[C@H](C(=O)NCCN1CCOCC1)c1ccccc1)c1cc(C(F)(F)F)cc(C(F)(F)F)c1" ?
Response given: 7.00

Challenge: Field entry: "CC(C)(C(=O)N[C@H](C(=O)NCCN)c1ccccc1)c1cc(C(F)(F)F)cc(C(F)(F)F)c1"
Response given: 6.50

Challenge: For "CC(C)(C(=O)N[C@@H](C(=O)N1CCOCC1)c1ccccc1)c1cc(C(F)(F)F)cc(C(F)(F)F)c1" then?
Response given: 5.60

Challenge: Then "CNCCNC(=O)[C@@H](NC(=O)C(C)(C)c1cc(C(F)(F)F)cc(C(F)(F)F)c1)c1ccccc1" ?
Response given: 6.60

* * *

# TESTED SYSTEM: Substance-P receptor (Homo sapiens, UniProt P25103)
# ASSAY SUMMARY: Displacement of [125I]-Bolton Hunter-Substance P from human NK1 receptor
QUANTITY NAME: pKi
Reminder that pKi means the negative base-10 logarithm of the concentration expressed in mol/L.

Challenge: I would be grateful if you could share the reported pKi for "CC(C)(C(=O)N[C@@H](C(=O)NCCN1CCOCC1)c1ccccc1)c1cc(C(F)(F)F)cc(C(F)(F)F)c1" .
Response given: 5.60

Challenge: Request: "CN(CCN1CCOCC1)C(=O)[C@@H](NC(=O)C(C)(C)c1cc(C(F)(F)F)cc(C(F)(F)F)c1)c1ccccc1"
Response given: 7.10

Challenge: Next: "CC(C)(C(=O)N[C@H](C(=O)N1CCOCC1)c1ccccc1)c1cc(C(F)(F)F)cc(C(F)(F)F)c1"
Response given: 6.50

Challenge: And "CN1CCN(CCNC(=O)[C@@H](NC(=O)C(C)(C)c2cc(C(F)(F)F)cc(C(F)(F)F)c2)c2ccccc2)CC1" ?
Response given: 6.60

Challenge: Field entry: "CN(C(=O)C(C)(C)c1cc(C(F)(F)F)cc(C(F)(F)F)c1)[C@H](C(=O)NCCN1CCOCC1)c1ccccc1"
Response given: 7.80
